# studySystem: Camel TRPV1 (Camelus ferus)
# Sequence (A0A8B8UHM1 1-838): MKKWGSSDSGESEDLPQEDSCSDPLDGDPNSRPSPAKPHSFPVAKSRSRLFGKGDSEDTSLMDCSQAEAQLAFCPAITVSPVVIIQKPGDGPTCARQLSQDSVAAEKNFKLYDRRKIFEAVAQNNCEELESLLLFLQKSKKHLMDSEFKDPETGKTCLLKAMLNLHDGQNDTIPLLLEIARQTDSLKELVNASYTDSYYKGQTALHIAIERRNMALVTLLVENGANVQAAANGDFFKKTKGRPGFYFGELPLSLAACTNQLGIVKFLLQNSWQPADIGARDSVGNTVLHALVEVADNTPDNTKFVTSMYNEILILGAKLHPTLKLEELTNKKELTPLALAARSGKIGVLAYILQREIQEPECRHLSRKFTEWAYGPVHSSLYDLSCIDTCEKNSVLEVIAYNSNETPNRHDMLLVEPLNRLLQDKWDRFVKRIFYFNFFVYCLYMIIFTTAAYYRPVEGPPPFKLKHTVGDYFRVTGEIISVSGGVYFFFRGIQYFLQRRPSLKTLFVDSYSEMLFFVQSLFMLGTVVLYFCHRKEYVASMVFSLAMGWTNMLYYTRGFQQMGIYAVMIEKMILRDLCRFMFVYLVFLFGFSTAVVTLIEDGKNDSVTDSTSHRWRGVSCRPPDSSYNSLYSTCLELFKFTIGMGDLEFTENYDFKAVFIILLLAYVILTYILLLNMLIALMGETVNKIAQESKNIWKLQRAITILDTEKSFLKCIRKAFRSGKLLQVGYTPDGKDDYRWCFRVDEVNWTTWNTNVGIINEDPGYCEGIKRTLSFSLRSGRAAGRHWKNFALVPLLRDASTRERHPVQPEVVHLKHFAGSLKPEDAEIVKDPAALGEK
# protocolNotes: Agonist activation, patch clamp, HEK293T
# Format: cell-based
# conditionSummary: mean ± s.e.m., n = 5; read-out: EC50_Capsaicin

[
  {
    "structureAsSmiles": "COc1cc(CNC(=O)CCCC/C=C/C(C)C)ccc1O",
    "EC50 [µM]": 0.54
  }
]

====

# studySystem: mV1 K839A (Mus musculus, UniProt Q704Y3, K839A)
# protocolNotes: Agonist activation, patch clamp, HEK293T
# Format: cell-based
# conditionSummary: mean ± s.e.m., n = 3; read-out: EC50_Capsaicin

[
  {
    "structureAsSmiles": "COc1cc(CNC(=O)CCCC/C=C/C(C)C)ccc1O",
    "EC50, nM": 293
  }
]

====

# studySystem: mouse TRPV1 (mV1) (Mus musculus, UniProt Q704Y3)
# protocolNotes: Agonist activation, patch clamp, HEK293T
# Format: cell-based
# conditionSummary: Supp Table 3 data, replicate 1; read-out: EC50_Capsaicin
experimentalReadout: EC50 (nM)

[
  {
    "structureAsSmiles": "COc1cc(CNC(=O)CCCC/C=C/C(C)C)ccc1O",
    "valueReported": 276
  }
]

====

# studySystem: mouse TRPV1 (mV1) (Mus musculus)
# protocolNotes: Agonist activation, patch clamp, HEK293T
# Type: cell-based
# conditionSummary: Supp Table 4 data, replicate 3; read-out: EC50_Capsaicin

[
  {
    "structureAsSmiles": "COc1cc(CNC(=O)CCCC/C=C/C(C)C)ccc1O",
    "valueUnits": "nM",
    "EC50": 321
  }
]

====

# studySystem: mV1_685 (ANAP) (Mus musculus, UniProt Q704Y3, E685X)
# protocolNotes: Agonist activation of ANAP-incorporated channel, patch clamp
pEC50: −log10 of the molar value.

[
  {
    "structureAsSmiles": "COc1cc(CNC(=O)CCCC/C=C/C(C)C)ccc1O",
    "pEC50": 6.53
  }
]

====

# studySystem: mV1_654 (ANAP) (Mus musculus, UniProt Q704Y3, Y654X)
# protocolNotes: Agonist activation of ANAP-incorporated channel, patch clamp
experimentalReadout: EC50 (µM)

[
  {
    "structureAsSmiles": "COc1cc(CNC(=O)CCCC/C=C/C(C)C)ccc1O",
    "valueUnits": "µM",
    "valueReported": 0.304
  }
]

====

# studySystem: mouse TRPV1 (mV1) (Mus musculus, UniProt Q704Y3)
# protocolNotes: Agonist activation, patch clamp, HEK293T
# Type: cell-based
# conditionSummary: Supp Table 3 data, replicate 3; read-out: EC50_Capsaicin
pEC50: −log10 of the molar value.

[
  {
    "structureAsSmiles": "COc1cc(CNC(=O)CCCC/C=C/C(C)C)ccc1O",
    "pEC50": 6.50
  }
]
